System: SR leukemia
Test: NCI-60 one-dose screen, 48 h
Settings: 10 µM unless noted
About 83,000 compounds went through this panel and 20% of them were active in at least one assay; those are over-represented in the sample as a whole. The source made the active and inactive calls. How the source made its calls: active means growth percent below 10; inactive means the rest.
Your answer must be one of the following: t for active, f for inactive

Recorded results for 5 compounds are shown here.
Incoming: Recorded test outcome, item CC(=O)N1N=C(c2cccc(Nc3ccncc3)c2)CC1c1ccccc1 (stereo unspecified)
Outgoing: f

Incoming: Recorded test outcome, item COc1ccc(C(=O)c2cc(C)c(OC)c(C)c2)c(OC)c1N(C(=O)C(Cl)Cl)C(=O)C(Cl)Cl
Outgoing: f

Incoming: Recorded test outcome, item OC(c1ccccc1)c1ccccn1 (stereo unspecified)
Outgoing: f

Incoming: Recorded test outcome, item COc1ccncc1C#Cc1cncc(C(=O)Nc2ccc(CN3CCN(C)CC3)c(C(F)(F)F)c2)c1
Outgoing: t

Incoming: Recorded test outcome, item N#C/C(=C\c1ccc(Br)cc1)n1nnc2cccc(F)c21
Outgoing: f

Moving on to another compound below.
Incoming: Recorded test outcome, item O=CNc1cc(Cl)cc(Cl)c1
Outgoing: f
